Source: ChEMBL document CHEMBL3988442

Tested on: Wolbachia pipientis
Assay: Anti-Wolbachia Cell-Based Screen
Assay type: functional
Design: scale not given: in the data most compounds retested in dose-response had high values
Settings: 5 µM
The whole screen tested about 48,000 compounds, of which about 13,000 (27%) showed an effect of 50% or more. Some of the results follow.

Compound	Percent Effect (%)
CC(NC(=O)N(C)Cc1ccsc1)c1ccc2c(c1)NC(=O)CO2 (stereo not given)	-9.283
Cn1ncc2c1C(COCC1CC1)CN(S(=O)(=O)C1CC1)C2 (stereo not given)	-3.815
CCOCC1CN(S(C)(=O)=O)Cc2cnn(CC3CCOCC3)c21.O=C(O)C(F)(F)F (stereo not given)	-18.06
COCC1c2c(cnn2CC2CCOCC2)CCN1Cc1ccoc1.O=C(O)C(F)(F)F.O=C(O)C(F)(F)F (stereo not given)	-3.551
COCC1CN(C(=O)c2ccoc2)Cc2cnn(CC3CCOCC3)c21.O=C(O)C(F)(F)F (stereo not given)	114.4
CCn1ncc2c1C(COCC1CC1)CN(C(=O)c1cccs1)C2 (stereo not given)	2.096
CCn1cc2c(n1)C(COCC1CC1)CN(C(=O)c1ccco1)C2 (stereo not given)	0.7054
Cn1ncc2c1C(COCC1CC1)CN(C(=O)Cc1ccsc1)C2 (stereo not given)	0.3372
O=C(c1ccco1)N1Cc2cnn(CC3CC3)c2C(COCC2CC2)C1 (stereo not given)	105.1
CCOCC1CN(C(=O)c2cccs2)Cc2cnn(CC3CC3)c21 (stereo not given)	108.8
